Known melting point of a selection of molecules

Completed entries (count: 5):
Molecule | melting point
NC(=O)N(O)CC1CC(c2ccco2)C1 (stereo not given) | 89 to 100 °C
COc1cc(C=O)ccc1OCc1nc(N2CCCCC2)sc1C | 80 to 81 °C
Cc1nc2n(c1CCN(C)C)CCCC2OCc1ccccc1 (stereo not given) | 68 to 70 °C
O=C(/C=C/c1ccc(Sc2ccccc2[N+](=O)[O-])c(Cl)c1Cl)N1CCOCC1 | 210 to 213 °C
CN(C)S(=O)(=O)NC1CCC(CCN2CCC(c3cccc4c3CCO4)CC2)CC1 (stereo not given) | 122 °C

Identify measured melting point corresponding to COC(=O)CC[C@H]1CC[C@H](NC(=O)N(NC=O)c2ccc(C#N)cc2)CC1
140 to 142 °C

---

Known melting point of a selection of compounds

Compound | melting point
CCc1cnc(N2CCN(C(=O)c3ccc(CNc4nc(-c5ccccc5)nc5ccccc45)cc3)CC2)nc1 | 207 to 208 °C
Cc1ccc2c(c1)C=Cc1cc(C)ccc1C2c1cn(-c2ccnc(N3CCC[C@H]3C(=O)O)n2)c(=O)[nH]c1=O | 200 to 205 °C
CN(C)OC(=O)c1c(O)cccc1Cl | 104 to 106 °C

Turning to the following compound.
Identify measured melting point corresponding to CCCCCOc1cc(C(=O)O)cc(S(N)(=O)=O)c1-c1ccccc1
152 to 155 °C

---

Known melting point of a selection of compounds

Identify measured melting point corresponding to O=[N+]([O-])c1ccc2c([N+](=O)[O-])c(O)c(O)cc2c1
200 to 207 °C

Identify measured melting point corresponding to C#Cc1ccc(Oc2cc(C(=O)Cl)cc(C(=O)Cl)c2)cc1
68 to 69 °C

Identify measured melting point corresponding to COc1ccc(COc2nc(C3CC3)c3cc(-c4cccc(Cl)c4)ccc3n2)cc1
158 to 159 °C

Identify measured melting point corresponding to C[C@H]1CN(c2c(F)cc3c(=O)c(C(=O)O)cn(CCF)c3c2Cl)C[C@H]1N (relative stereo)
234 to 236 °C

Identify measured melting point corresponding to CCCOC(=O)C1=C(C)NC(C)=C(C(=O)OCC2CC2)C1c1cccc([N+](=O)[O-])c1 (stereo not drawn)
167 to 168 °C

Identify measured melting point corresponding to c1ccc(C2COc3ccccc3C2)cc1 (stereo not drawn)
54 to 56 °C

Identify measured melting point corresponding to CC(=O)OCc1c(C(=O)C(=O)O)c2cc(-c3ccc(OC(F)(F)F)cc3)ccc2n1Cc1ccccc1
85 to 86 °C

Identify measured melting point corresponding to COC(=O)CSc1cccc(CN)c1
72 °C

---

Result type: melting point

Completed entries (count: 2):
Compound structure string | melting point
O=C1CCCc2c1ccc(O)c2Br | 183 to 186 °C
CCOC(=O)Cn1c(-c2ccccn2)nc2cccnc21 | 109 to 111 °C

Identify measured melting point corresponding to CCCc1c(OCCCSc2ccc(CC(=O)OC)c(Cl)c2Cl)ccc(C(C)=O)c1O
82 to 85 °C

---

Result type: melting point

Completed entries (count: 3):
Compound structure string | Test value
Cc1nc(-c2ccccc2)c(-c2ccccc2)nc1N(C)CCCCOCC(=O)OC(C)(C)C | 48 to 51 °C
CN1C(C)(C)CC(CNc2nc(NO)nc(NCC3CC(C)(C)N(C)C(C)(C)C3)n2)CC1(C)C | 157 to 160 °C
CCCCCCCCCCCCOC(=O)COCC(=O)O | 57 to 59 °C

Turning to the following compound.
Identify measured melting point corresponding to CCN(CC)CC(=O)Nc1ccc(-c2n[nH]c3c2Cc2ccccc2-3)cc1
99 to 100 °C
